system: Yap1 mRNA; assay: Antisense inhibition of human Yap1 in A-431 cells by cEt gapmers, single dose (Example 2, RTS4814); assay type: cell-based; conditions: A-431 cells, 5,000 cells per well, free uptake, 2,000 nM modified oligonucleotide, approx. 48 hours, RTS4814, normalized to RIBOGREEN; Table 4; asterisk (*) = targets amplicon region of primer probe set
Strand notation (5' to 3'): a small letter for the sugar, then the base; units joined by * are phosphorothioate-linked, units joined directly phosphodiester-linked; [ ] holds rarer units or linkages, { } end groups; capitals alone tell only the bases. k = constrained ethyl (cEt); [5mC] = 5-methylcytosine; d = 2'-deoxy (DNA)
ENDPOINT: YAP1 (% UTC)

{"columns": ["SUBSTANCE", "UNITS SYMBOL", "MEASURED NUMBER"],
 "data": [
  ["716391 (kG*kG*kA*dG*d[5mC]*dA*d[5mC]*dT*d[5mC]*dT*dG*dA*d[5mC]*kT*kG*kA; antisense) [Compound 716391]", "% UTC", 44],
  ["716484 (k[5mC]*kA*k[5mC]*dT*dT*dT*dT*d[5mC]*d[5mC]*dA*dG*d[5mC]*dT*kA*kA*k[5mC]; antisense) [Compound 716484]", "% UTC", 35],
  ["716400 (kT*kA*kA*d[5mC]*dT*d[5mC]*d[5mC]*dT*dG*dA*d[5mC]*dA*dT*kT*kT*kT; antisense) [Compound 716400]", "% UTC", 106],
  ["716454 (k[5mC]*kG*kA*dG*dA*dT*dT*dT*dA*dA*dA*dT*dA*kA*kG*kG; antisense) [Compound 716454]", "% UTC", 27],
  ["716421 (kT*kA*kT*dT*dA*dG*d[5mC]*d[5mC]*dT*dG*dA*dA*dA*kA*k[5mC]*kT; antisense) [Compound 716421]", "% UTC", 86],
  ["716385 (kT*kT*k[5mC]*d[5mC]*d[5mC]*dA*dT*d[5mC]*d[5mC]*dA*dT*d[5mC]*dA*kG*kG*kA; antisense) [Compound 716385]", "% UTC", 87]
]}
